All figures here come from patent US20200247894A1.

In this section we review reported kon values for a set of binders.
Target system: T1, D1 domain of human IL-2Rγ extracellular domain expressed with a C-terminal myc-myc-hexahistidine tag (human)
T1 construct: also called human IL2Rγ domain 1
T1 chain: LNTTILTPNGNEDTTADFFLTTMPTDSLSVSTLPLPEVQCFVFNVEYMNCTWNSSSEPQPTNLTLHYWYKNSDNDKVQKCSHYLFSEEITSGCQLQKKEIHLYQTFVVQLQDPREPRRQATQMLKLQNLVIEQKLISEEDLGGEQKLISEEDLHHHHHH
Measurement description: SPR, mAb captured on anti-hFc, 25 C
Experimental: Equilibrium dissociation constants (KD values) for IL-2Rγ binding to purified anti-IL2Rγ monoclonal antibodies were determined using a Biacore 4000 instrument equipped with a real-time surface plasmon resonance biosensor. […] The dissociation of monoclonal antibody bound IL2Rγ reagents were monitored for 8-10 minutes in HBS-ET running buffer. […] Binding dissociation equilibrium constants (KD) and dissociative half-lives (t_{1/2}) were calculated from the kinetic rate constants as: […]
Assay readout: kon (M⁻¹ s⁻¹)

INSERT INTO results (binder, assay_readout, unit_label, reported) VALUES
  ('H4H12871P (antibody, human IgG4 S228P, kappa, V domains shown, human IgG4; also called REGN9434) VH: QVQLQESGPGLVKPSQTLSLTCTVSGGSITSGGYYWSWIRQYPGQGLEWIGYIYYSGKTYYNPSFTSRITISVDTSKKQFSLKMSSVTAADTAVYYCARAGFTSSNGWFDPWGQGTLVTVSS VL: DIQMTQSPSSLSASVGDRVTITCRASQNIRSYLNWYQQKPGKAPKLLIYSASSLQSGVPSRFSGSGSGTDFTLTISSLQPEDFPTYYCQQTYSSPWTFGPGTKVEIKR', 'kon', 'M⁻¹ s⁻¹', 94000),
  ('H4H12884P (antibody, human IgG4 S228P, kappa, V domains shown, human IgG4) VH: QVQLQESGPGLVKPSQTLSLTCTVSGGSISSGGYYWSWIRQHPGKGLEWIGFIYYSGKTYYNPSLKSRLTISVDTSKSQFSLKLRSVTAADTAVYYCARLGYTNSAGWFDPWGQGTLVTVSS VL: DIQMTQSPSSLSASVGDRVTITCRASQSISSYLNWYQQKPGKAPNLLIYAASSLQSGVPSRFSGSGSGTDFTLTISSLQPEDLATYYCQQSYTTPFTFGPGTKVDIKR', 'kon', 'M⁻¹ s⁻¹', 166000),
  ('H4H12863P (antibody, human IgG4 S228P, kappa, V domains shown, human IgG4) VH: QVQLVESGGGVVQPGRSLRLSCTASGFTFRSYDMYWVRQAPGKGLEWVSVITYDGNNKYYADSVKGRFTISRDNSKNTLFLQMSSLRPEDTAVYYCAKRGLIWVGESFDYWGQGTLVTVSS VL: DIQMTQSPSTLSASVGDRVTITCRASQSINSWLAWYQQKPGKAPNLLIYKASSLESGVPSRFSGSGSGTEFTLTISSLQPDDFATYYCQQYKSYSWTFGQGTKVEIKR', 'kon', 'M⁻¹ s⁻¹', 114000),
  ('H4H12889P (antibody, human IgG4 S228P, kappa, V domains shown, human IgG4; also called REGN7257) VH: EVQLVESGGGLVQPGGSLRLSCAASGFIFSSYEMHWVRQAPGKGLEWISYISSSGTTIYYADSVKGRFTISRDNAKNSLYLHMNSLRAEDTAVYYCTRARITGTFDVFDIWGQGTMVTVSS VL: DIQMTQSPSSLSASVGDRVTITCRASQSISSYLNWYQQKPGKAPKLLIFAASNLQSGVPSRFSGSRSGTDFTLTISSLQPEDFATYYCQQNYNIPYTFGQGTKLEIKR', 'kon', 'M⁻¹ s⁻¹', 200000);
